Catalogue of growth values
Tested on: UO-31 renal
experiment description: NCI-60 one-dose screen, 48 h (100 = growth as untreated, 0 = no growth, -100 = all killed)
condition description: 10 µM unless noted
Compounds without any hit were thinned out: in the full panel of roughly 83,000, 20% have a hit.
Answer with a number only, understood to be in %.

Lookup: API: value(readout=growth, system=UO-31 renal) for record CC(=O)OC1Oc2cc(C)c(C)cc2-c2oc(=O)c(-c3cc4ccc(N(C)C)cc4oc3=O)cc21 (stereo not given)
Found: 51.4

Lookup: Same for COC(=O)[C@@H]1CC[C@]2(C)[C@H](CC[C@@H]3O[C@@]32C)[C@@]1(C)CC(=O)c1ccoc1
Found: 97

Lookup: Same for COc1ccc(-c2csc(NC(=O)CN3CCN(c4cc5c(cc4F)c(=O)c(C(=O)O)cn5C4CC4)CC3)n2)cc1
Found: 21

Lookup: Same for CCCCCn1cnc2c(=S)nc[nH]c21
Found: 99.1

Lookup: Same for Nc1c(C(=O)Nc2ccccc2)sc2nc3c(cc12)CN(CCc1ccccc1)CC3
Found: 80.3

Lookup: Same for CC(C)[C@H]1COC(=O)N1[C@@H]1C(=O)N([C@@H](CCC(=O)N2CCN(C3CCCC3)CC2)C(=O)N[C@@H]2CCCc3ccccc32)[C@@H]1/C=C/c1cccc(Br)c1
Found: 31

Lookup: Same for CCCCCC(=O)Oc1ccc(/C(=C(\C)c2ccccc2)c2ccc(OCCN(CC)CC)cc2)cc1
Found: 48.4

Lookup: Same for CCCCCCCCSC1=CC(=O)C(OC)=C(OC)C1=O
Found: -92.7

Lookup: Same for COc1ccc(S(=O)(=O)NCCNc2nccc(-c3c(-c4cccc([N+](=O)[O-])c4)nc4sccn34)n2)cc1
Found: 49.3

Lookup: Same for CC(=O)C1=C(O)C=C2Oc3c(C(=O)/C=C/c4cc(Cl)cc(Cl)c4)c(O)c(C)c(O)c3[C@]2(C)C1=O
Found: -15.1

Lookup: Same for Oc1ccccc1/C=N/Nc1ccc2ccccc2n1
Found: 16.4

Lookup: Same for Cc1ccc2c(c1)n([O-])c1cc(Cl)ccc1[n+]2=O
Found: 88.9

Lookup: Same for CC/C=C\C[C@H](F)C/C=C1/C(=O)C=C[C@@H]1C/C=C\CCCC(=O)OC
Found: -4.75

Lookup: Same for CCN(CC)CCCNc1cccc2c(SCc3ccccc3)ccnc12
Found: -9.99

Lookup: Same for CCOC(=O)c1nc(Nc2cc(C)[nH]n2)c2ccccc2n1
Found: 76.7

Lookup: Same for Nc1cc(-c2nc3sccn3c2-c2ccnc(NCCCNS(=O)(=O)c3ccc(F)cc3)n2)ccc1F
Found: 30.7

Lookup: Same for CCN(CC)CC#CCOC(=O)[C@]1(C)CCC[C@@]2(C)[C@H]1CC(C=O)=C1C=C(C(C)C)CC[C@@H]12
Found: 52.6

Lookup: Same for CCC(c1ccccc1)C(CC)c1ccc(O)c(O)c1 (stereo not given)
Found: 74.2

Lookup: Same for COc1cc2c(c(OC)c1OC)-c1ccc(N=NC(N)=S)c(=O)cc1[C@@H](NC(C)=O)CC2
Found: 60.9

Lookup: Same for CS(=O)CCCCCN=C=S (stereo not given)
Found: 1.81

Lookup: Same for COc1ccc(CCN2CCCn3c2nc2ccccc2c3=O)cc1
Found: 41.1

Lookup: Same for CN1/C(=C\C=C\C2=[N+](C)c3ccccc3C2(C)C)C(C)(C)c2ccccc21
Found: 8.16

Lookup: Same for Nc1cc2ccncc2c2ccccc12
Found: 51.6

Lookup: Same for CCCCN(CCCC)Cc1c(C)[nH]c2cc(OC)ccc2c1=O
Found: 81.2

Lookup: Same for O=C1CC(c2nc3ccccc3s2)CN1C1CCCCC1 (stereo not given)
Found: 70.5

Lookup: Same for COc1ccc(-c2c3c(nc4n[nH]c(-c5ccc(Cl)cc5)c24)-c2ccccc2C(=O)C3=O)cc1
Found: 0.604

Lookup: Same for COc1ccc(C(=O)COc2ccc(/C=C3\Oc4ccc(Cl)cc4C3=O)cc2)cc1
Found: 83.4
